METHOD DESCRIPTION: Maximum concentration (Cmax) using 20%aqueous hydroxypropyl-beta-cyclodextrin (HPbetaCD) as vehicle. compound was administered intravenously to nude mice at a dose of 25 mg/kg
Assay type: ADME, organism-based
Parameters: dose 25 mg/kg, route intravenous
ASSAY CONDITIONS: mouse, in vivo, iv
MEASURED METRIC: Cmax (µM)

| MOL SMILES | MEASURED METRIC | RECORDED NUMBER |
| --- | --- | --- |
| NC(=O)N1CCC(CC(=O)N2CCC([C@H]3c4ncc(Br)cc4CCc4cc(Cl)cc(Br)c43)CC2)CC1 | Cmax | 20 |
| NS(=O)(=O)N1CCC(CC(=O)N2CCC([C@H]3c4ncc(Br)cc4CCc4cc(Cl)cc(Br)c43)CC2)CC1 | Cmax | 30 |
| O=C(CC1CCN(C(=O)c2cc[n+]([O-])cc2)CC1)N1CCC([C@H]2c3ncc(Br)cc3CCc3cc(Cl)cc(Br)c32)CC1 | Cmax | 19.8 |
| CS(=O)(=O)N1CCC(CC(=O)N2CCC([C@H]3c4ncc(Br)cc4CCc4cc(Cl)cc(Br)c43)CC2)CC1 | Cmax | 30 |
